Procedure details: qHTS assay to identify small molecule antagonists of the sonic hedgehog signaling (Shh) pathway - cell viability counter screen (AID 1259367); note: nearly all actives have a fitted effect of over 55% in size
Condition context: NIH/3T3 Gli1-Luc viability, CellTiter-Fluor, 24 h; series mostly up to 92.4 µM
Results filed as inconclusive are left out. Active and inactive are the calls of the source. Calls come from the whole dose curve; as a rule, active = well fitted cell-killing curve with a large enough effect in the repeat runs; inconclusive = weak or mixed curves, or effect the other way; inactive = no such curve, though single readings can be large or run the other way.
Labels: yes for active, no for inactive

>>> print(df.to_string())
                                    molecule  discrete_label
 0  CCN(CC)c1ccc2c(c1)Oc1cc(N(CC)CC)ccc1C21OC(=O)c2ccccc21             yes
 1                                 SC1CCCCC1              no
 2                               N#CCCOCCC#N              no
 3                     Cc1cccc2c1ccc1ccccc12              no
 4           ClC(c1ccccc1)(c1ccccc1)c1ccccc1              no
 5  CCC(C)(C)c1ccc(CC(C)CN2C[C@@H](C)O[C@@H](C)C2)cc1 (some centres undefined)              no
 6                                 NCc1ccco1              no
 7  CCc1cccc(C)c1N(C(=O)C(=O)O)C(C)COC (centres undefined)              no
 8                  CCOC=C(C(=O)OCC)C(=O)OCC              no
 9  C=C1C(CCl)(CCl)C2(Cl)C(Cl)C(Cl)C1(Cl)C2(Cl)Cl (centres undefined)              no
10                                  Cn1ccnc1              no
11                        C/C=C/C(=O)OCC(C)C              no
12                          Oc1ccc2c(c1)CCC2              no
13  O=C(N[C@H](CO)[C@H](O)c1ccc([N+](=O)[O-])cc1)C(Cl)Cl              no

---

Target under test: Androgen receptor (Homo sapiens)
Procedure details: qHTS assay to identify small molecule antagonists of the androgen receptor (AR) signaling pathway using the MDA cell line (AID 743042; note: nearly all actives have a fitted effect of over 55% in size)
Condition context: MDA-kb2 AR-luc, MMTV luciferase, R1881 antagonist, 16 h; series mostly up to 70.3 µM
Results filed as inconclusive are left out. Active and inactive are the calls of the source. Calls follow the shape of the dose curve; as a rule, active = well fitted inhibition curve with a large enough effect in the repeat runs; inconclusive = weak or mixed curves, or effect the other way; inactive = no such curve, though single readings can be large or run the other way.
Labels: y (active), n (inactive)

                                   compound  discrete_label
0  CCCCCCCCCCCCCCCCC(C(=O)O)C(O)(CC(=O)O)C(=O)O (stereo not given)               n
1  CC(=O)OCC1=C(C(=O)O)N2C(=O)[C@@H](NC(=O)Cc3ccccc3)[C@H]2SC1               n
2  CO/N=C(\C(=O)N[C@@H]1C(=O)N2C(C(=O)O)=C(C[N+]3(C)CCCC3)CS[C@H]12)c1csc(N)n1               n
3                N[C@@H](Cc1cnc[nH]1)C(=O)O               n
4  O=C(CCCCCCCCc1cccnc1)N1CCC(C=C(c2ccccc2)c2ccccc2)CC1               n
5  CC12CCC(C1)C(C)(C)C2=O (stereo not given)               n
6         CN(C)CCc1c[nH]c2ccc(Cn3cncn3)cc12               n
7  CO/N=C(\C(=O)N[C@@H]1C(=O)N2C(C(=O)O)=C(CSc3cnns3)CS[C@H]12)c1csc(N)n1               n
8  CCOc1cc(CC(=O)N[C@@H](CC(C)C)c2ccccc2N2CCCCC2)ccc1C(=O)O               n
9  CN[C@H]1CC[C@@H](c2ccc(Cl)c(Cl)c2)c2ccc(S(N)(=O)=O)cc21               y
